Biological target: human serum albumin (HSA) (Homo sapiens)
Construct: purchased Sigma Aldrich A9511
Sequence (P02768 25-609): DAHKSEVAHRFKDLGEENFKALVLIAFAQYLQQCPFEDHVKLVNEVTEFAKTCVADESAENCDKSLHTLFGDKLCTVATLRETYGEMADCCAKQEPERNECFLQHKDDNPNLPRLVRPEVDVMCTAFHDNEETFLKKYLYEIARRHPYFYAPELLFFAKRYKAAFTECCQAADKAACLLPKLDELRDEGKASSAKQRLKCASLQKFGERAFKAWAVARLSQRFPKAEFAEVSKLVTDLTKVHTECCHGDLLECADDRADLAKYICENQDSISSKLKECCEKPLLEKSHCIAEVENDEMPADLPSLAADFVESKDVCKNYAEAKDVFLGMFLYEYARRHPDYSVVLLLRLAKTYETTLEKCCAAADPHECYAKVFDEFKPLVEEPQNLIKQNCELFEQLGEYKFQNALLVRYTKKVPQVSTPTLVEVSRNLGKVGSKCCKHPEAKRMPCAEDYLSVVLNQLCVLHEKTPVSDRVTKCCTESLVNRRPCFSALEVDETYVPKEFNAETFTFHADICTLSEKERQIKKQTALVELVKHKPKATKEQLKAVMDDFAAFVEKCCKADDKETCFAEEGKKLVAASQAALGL
Assay: Binding affinity to human serum albumin (absorbance peak shift or ultrafiltration method)
Details: phosphate buffer, 25° C., one of the two methods; read-out: HSA affinity (KA) (converted)
Observed property: Kd

[[record]]
compound = "CC(CC[N+]1=C(/C=C/C=C/C=C/C=C2/N(CCCCCC(=O)NCCCC[C@@H]3NC(=O)C(Cc4ccccc4)NC(=O)[C@H](CC(=O)O)NC(=O)CNC(=O)[C@H](CCCNC(=N)N)NC3=O)c3ccc(C(=O)NCC(O)C(O)C(O)C(O)CO)cc3C2(C)C)C(C)(C)c2cc(C(=O)NCC(O)C(O)C(O)C(O)CO)ccc21)S(=O)(=O)[O-] (stereo partly drawn)"
observed_property = "Kd"
experimental_result = "159 µM"


# return Kd for CC1(C)C(/C=C/C=C/C=C2/N(CCCCCC(=O)O)c3ccc(C(=O)NCC(O)C(O)C(O)C(O)CO)cc3C2(C)C)=[N+](CCCCS(=O)(=O)[O-])c2ccc(C(=O)NCC(O)C(O)C(O)C(O)CO)cc21 (stereo not drawn) , test system: human serum albumin (HSA) (Homo sapiens)
> 1000 µM

# return Kd for CC1(C)C(/C=C/C=C/C=C/C=C2\N(CCCCS(=O)(=O)O)c3ccc4ccccc4c3C2(C)C)=[N+](CCCCS(=O)(=O)[O-])c2ccc3ccccc3c21 [ICG, Indocyanine Green, reference compound] , test system: human serum albumin (HSA) (Homo sapiens)
2.88 µM

# return Kd for CC(CC[N+]1=C(/C=C/C=C/C=C/C=C2/N(CCCCCC(=O)NCC3C[C@@H]4CC[C@H]5C(=O)N[C@@H](CCCNC(=N)N)C(=O)NCC(=O)N[C@@H](CC(=O)O)C(=O)N[C@H]3C(=O)N45)c3ccc(C(=O)NCC(O)C(O)C(O)C(O)CO)cc3C2(C)C)C(C)(C)c2cc(C(=O)NCC(O)C(O)C(O)C(O)CO)ccc21)S(=O)(=O)[O-] (stereo partly drawn) , test system: human serum albumin (HSA) (Homo sapiens)
238 µM

# return Kd for CC(CC[N+]1=C(/C=C/C=C/C=C/C=C2/N(CCCCCC(=O)O)c3ccc(C(=O)NCC(O)C(O)C(O)C(O)CO)cc3C2(C)C)C(C)(C)c2cc(C(=O)NCC(O)C(O)C(O)C(O)CO)ccc21)S(=O)(=O)[O-] (stereo not drawn) , test system: human serum albumin (HSA) (Homo sapiens)
196 µM

# return Kd for "CC1(C)C(/C=C/C=C/C=C2/N(CCCCCC(=O)O)c3ccc(C(=O)NC(CO)(CO)CO)cc3C2(C)C)=[N+](CCCCS(=O)(=O)[O-])c2ccc(C(=O)NC(CO)(CO)CO)cc21" , test system: human serum albumin (HSA) (Homo sapiens)
289 µM

---

Assay: Optical properties: excitation/emission maxima and absolute fluorescence quantum yield
Format: physicochemical
Conditions: PBS pH 7.4
Observed property: Φ (absolute fluorescence quantum yield) (%)
Report the figure in % without appending any unit label.

In the examples that follow, each entry is paired with its recorded Φ (absolute fluorescence quantum yield).
[[record]]
compound = "CC1(C)C(/C=C/C=C/C=C2/N(CCCCCC(=O)O)c3ccc(C(=O)NC(CO)(CO)CO)cc3C2(C)C)=[N+](CCCCS(=O)(=O)[O-])c2ccc(C(=O)NC(CO)(CO)CO)cc21 [Compound 7]"
observed_property = "Φ (absolute fluorescence quantum yield)"
experimental_result = 35.1

[[record]]
compound = "CC1(C)C(/C=C/C=C/C=C2/N(CCCCCC(=O)O)c3ccc(C(=O)NCC(O)C(O)C(O)C(O)CO)cc3C2(C)C)=[N+](CCCCS(=O)(=O)[O-])c2ccc(C(=O)NCC(O)C(O)C(O)C(O)CO)cc21 (stereo not shown) [Compound 6]"
observed_property = "Φ (absolute fluorescence quantum yield)"
experimental_result = 35.6


Switching to the query record.
Note down Φ (absolute fluorescence quantum yield) recorded for CC1(C)C(/C=C/C=C/C=C/C=C2\N(CCCCS(=O)(=O)O)c3ccc4ccccc4c3C2(C)C)=[N+](CCCCS(=O)(=O)[O-])c2ccc3ccccc3c21 [ICG, Indocyanine Green, reference compound]
1.5
